Target: human β2-adrenoceptor (Homo sapiens)
Construct: expressed in transfected cells
Sequence (P07550 whole entry): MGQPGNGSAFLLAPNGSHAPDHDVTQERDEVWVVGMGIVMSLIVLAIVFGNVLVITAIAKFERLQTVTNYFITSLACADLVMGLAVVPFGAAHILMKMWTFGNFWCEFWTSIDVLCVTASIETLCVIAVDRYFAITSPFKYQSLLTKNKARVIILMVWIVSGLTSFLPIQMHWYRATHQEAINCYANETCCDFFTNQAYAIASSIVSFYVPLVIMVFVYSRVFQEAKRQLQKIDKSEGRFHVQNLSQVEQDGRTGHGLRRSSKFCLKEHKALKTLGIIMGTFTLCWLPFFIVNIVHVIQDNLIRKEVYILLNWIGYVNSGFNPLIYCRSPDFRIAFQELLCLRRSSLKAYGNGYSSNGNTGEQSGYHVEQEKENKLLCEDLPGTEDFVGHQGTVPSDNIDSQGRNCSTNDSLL
Test: 3H-CGP 12177 whole cell β2 binding
Conditions: CHO cells stably expressing the human β2-adrenoceptor; ~1 nM 3H-CGP 12177; 2 hours at 37° C.; read-out: Biological example 3: -log K (pKi), 3H-CGP 12177 whole cell β2 binding (converted)
Experimental: ^3H-CGP 12177 Whole Cell β2 Binding Chinese Hamster Ovary (CHO) cells stably expressing the human β2-adrenoceptor were grown in Dulbecco's modified Eagle's medium nutrient mix F12 (DMEM/F12) containing 10% fetal calf serum and 2 mM L-glutamine in a 37° C. humidified 5% CO2:95% air atmosphere. […] The plate was left overnight in the dark at room temperature, centrifuged (1000 rpm, 1 min) and measured in a MicroBeta2 Microplate Counter (Perkin Elmer) (10 minutes pre-incubation, 2 min counts/well). […]
Binning rule for recorded Ki: group A: < 5 µM; group B: ≥ 5 µM and < 10 µM; group C: ≥ 10 µM

Molecule	Qualitative label
CCCCNCC(O)c1cccc(Cl)c1 (stereo not shown)	group B

Each molecule maps to one class by Ki. Which class for CCCCNCC(O)c1cc(F)c(N)c(F)c1 (stereo not shown) ?
group A

Each molecule maps to one class by Ki. Which class for CCCC(C)NCC(O)c1cccc(O)c1 (mixture of isomers) ?
group A

Each molecule maps to one class by Ki. Which class for CCCCCCCCNCC(O)c1ccc(O)cc1 (stereo not shown) ?
group B

Each molecule maps to one class by Ki. Which class for CCCC(C)NCC(O)c1cc(Cl)c(O)c(Cl)c1 (mixture of isomers) ?
group A

Each molecule maps to one class by Ki. Which class for CCCCNCC(O)c1cc(O)cc(O)c1 (stereo not shown) ?
group C

Each molecule maps to one class by Ki. Which class for CCCC(C)NCC(O)c1ccc(O)c(Cl)c1 (mixture of isomers) ?
group A

Each molecule maps to one class by Ki. Which class for CC(C)(C)NCC(O)c1ccc(O)cc1 (stereo not shown) ?
group A

Each molecule maps to one class by Ki. Which class for Oc1ccc(C(O)CNCCCC2CCCCC2)cc1 (stereo not shown) ?
group A

Each molecule maps to one class by Ki. Which class for Oc1ccc(C(O)CNC23CC4CC(CC(C4)C2)C3)cc1 (stereo not shown) ?
group C
